test.name: antimalarial activity against Dd2 strain (AID 2302);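 further: 0% = DMSO untreated growth and 100% = chloroquine plus artemisinin killed control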
assay.conditions: P. falciparum Dd2 in RBCs, LDH growth readout, 72 h; at 2 µM
Active and inactive are the calls of the source.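 How the source made its calls: active means growth inhibition above 50% at the single 2 µM test dose, taken to imply half-maximal potency below 2 µM; inactive means the rest.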
Labels: active, inactive

molecule: c1ccc(Oc2ccc(Nc3ccnc4ccc(-c5ccccn5)cc34)cc2)cc1
label.value: inactive
--
molecule: Oc1ccc(Nc2nc(NCc3ccccc3)c3ccccc3n2)cc1
label.value: active
--
molecule: COc1ccc(-c2cnc3[nH]cc(-c4ccc(CCC(=O)O)cc4)c3c2)cn1
label.value: active
--
molecule: O=C(C=Cc1cccs1)N(CCCn1ccnc1)c1nc2ccc(F)cc2s1
label.value: inactive
--
molecule: COc1ccc(-c2cc(C(=O)N[C@@H](CC3CCCCC3)C(=O)NC3CCCc4ccccc43)ccc2O)cc1 (some centres undefined)
label.value: active
--
molecule: CCCCc1cc(NCc2ccncc2)nc(Nc2ccc(OC)cc2)n1
label.value: inactive
--
molecule: COc1ccc(CNCc2ccccc2)cc1-c1cccc(S(=O)(=O)NCCN2CCCC2)c1
label.value: inactive
--
molecule: Nc1n[nH]c(-c2ccccc2Nc2ccnc3cc(-c4nccs4)ccc23)n1
label.value: active
--
molecule: Cc1cc(Nc2ccccc2)nc(Nc2ccccc2C)n1
label.value: inactive

====

target.entity: L-lactate dehydrogenase (Plasmodium falciparum (isolate CDC / Honduras))
test.name: PfLDH activity inhibition – cell lysate, 3D7 strain, counter-screen for P. falciparum growth inhibition project (AID 2304);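 further: 0% = vehicle and 100% = reference inhibitor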
assay.conditions: P. falciparum 3D7 crude extract, LDH APAD/NBT absorbance; at 2 µM; stronger effect = higher value
Calls of active or inactive are those of the source. How the calls were made is not given here.
metric: inhibition

compound: CCOc1c(Br)cc(C)cc1CNCCCNc1nc2ccccc2[nH]1
target.entity: L-lactate dehydrogenase (Plasmodium falciparum (isolate CDC / Honduras))
endpoint.value: 6% (inactive)
//
compound: Cc1ccccc1C1CCN(C2CCC(NC(=O)C3=Cc4ccccc4OC3)CC2)CC1 (stereo not given)
target.entity: L-lactate dehydrogenase (Plasmodium falciparum (isolate CDC / Honduras))
endpoint.value: -4% (inactive)
//
compound: O=C(Nc1cccc(-c2cccc(-c3nc4ccc(F)cc4[nH]3)c2)c1)c1cnc[nH]1
target.entity: L-lactate dehydrogenase (Plasmodium falciparum (isolate CDC / Honduras))
endpoint.value: -1% (inactive)
//
compound: CN1CCN(CC(=O)Nc2cccc(-c3cccc(-c4nc5ccc(C(F)(F)F)cc5[nH]4)c3)c2)CC1
target.entity: L-lactate dehydrogenase (Plasmodium falciparum (isolate CDC / Honduras))
endpoint.value: 4% (inactive)
//
compound: CCN=C1NC2=C(CC(C(C)(C)C)CC2)C2(CCC(C(C)(C)C)CC2)S1 (stereo not given)
target.entity: L-lactate dehydrogenase (Plasmodium falciparum (isolate CDC / Honduras))
endpoint.value: 4% (inactive)

====

test.name: inhibition of 3D7 malaria parasite growth – strain 3D7 (AID 2306);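 further: 0% = DMSO wells and 100% = chloroquine plus artemisinin control wells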
assay.conditions: P. falciparum 3D7 erythrocytic growth, LDH absorbance, 72 h; at 2 µM; stronger effect = higher value

molecule: COc1ccc(-c2nc3c(N)nc(N)nc3nc2C(C)C)cc1
growth inhibition (%): 96
--
molecule: CCc1c(C(=O)NC2CCC(N3CCC(c4ccccc4OC)CC3)CC2)[nH]c2ccc(Br)cc12 (configuration not stated)
growth inhibition (%): 101
--
molecule: Cc1cc(NN=CC=Cc2ccccc2)c2cc(F)ccc2n1
growth inhibition (%): 101
--
molecule: COc1ccc2nc(C)cc(NN=Cc3cccc(Cl)c3)c2c1
growth inhibition (%): 101
--
molecule: CSc1nc2nc(C)c(Cc3cccc(F)c3)c(C)n2n1
growth inhibition (%): 87
--
molecule: Cc1[nH]c(C)c(-c2ccc(OCc3ccccc3)cc2)c(=O)c1Br
growth inhibition (%): 97
--
molecule: O=C(/C=C/c1ccc(Cl)c(Cl)c1)N1CCC(C(O)CN2CCC(c3c[nH]c4ccccc34)CC2)CC1 (configuration not stated)
growth inhibition (%): 99

====

test.name: human hepatoma cell viability loss – ATP luminescence, cytotoxicity control for P. falciparum antimalarial project, primary screen (AID 2303);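 further: 0% = DMSO wells and 100% = digitonin-killed cells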
assay.conditions: HepG2 viability, 24-48 h, at 10 µM
Calls of active or inactive are those of the source.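 How the source made its calls: active means inhibition above 50%; inactive means the rest.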
Labels: true (active), false (inactive)

compound: CCCCCN(C(=O)Nc1cc(C(F)(F)F)cc(C(F)(F)F)c1)C(C)c1nc2ccccc2c(=O)n1CC (stereo unspecified)
label.value: false
//
compound: CCOc1cc(C(=O)NCc2cccc(C(F)(F)F)c2)ccc1-c1nc2ccc(Cl)cc2[nH]1
label.value: false
//
compound: O=C1C(c2ccccc2)=C(Nc2cccc([N+](=O)[O-])c2)c2ccccc21
label.value: false
//
compound: CC(C)(C)Nc1nc(Nc2cccc([N+](=O)[O-])c2)nc(-n2ccnc2)n1
label.value: false
//
compound: CCOCCCn1c(=N)c(C(=O)NCc2ccc(F)cc2)cc2c(=O)n3cccc(C)c3nc21
label.value: false
//
compound: CCC1CN(S(=O)(=O)c2ccc3c(c2)NC(=O)CC(=O)N3)c2cc(Cl)ccc2O1 (stereo unspecified)
label.value: false
//
compound: O=C(Nc1ccc(Cl)cc1)Nc1ccc(-c2cccc(-c3nc4ccccc4[nH]3)c2)cc1
label.value: true
//
compound: O=C(/C=C/c1ccc(Cl)c(Cl)c1)NCCCCCCN1CCCN(C(=O)Nc2cc(Cl)cc(Cl)c2)CC1
label.value: false
//
compound: Nc1nc(N)c2c(ccc3c2ccn3Cc2ccc(OCc3ccccc3)cc2)n1
label.value: false
//
compound: COC(=O)c1cccc(NC(=O)NC2CCN(c3ccnc(Nc4cc(OC)c(OC)c(OC)c4)n3)C2)c1 (stereo unspecified)
label.value: false
//
compound: CCc1[nH]nc(C(=O)NC2CCN(CC3(c4ccc(OC)cc4)CCCCC3)CC2)c1C
label.value: false
//
compound: Fc1cccc(COc2ccc(Nc3ncnc4sc(C#CC5CCCCN5)cc34)cc2Cl)c1 (stereo unspecified)
label.value: false
//
compound: O=C(Cc1ccc(NC(=O)c2ccc(O)c(-c3ccc(Cl)c(Cl)c3)c2)cc1)NCCc1ccc(Cl)c(Cl)c1
label.value: false
//
compound: CN1CCN(CCCN(Cc2cccc(-c3ccc(CNCc4ccc5c(c4)OCO5)cc3)c2)C(=O)Nc2ccccc2)CC1
label.value: false
//
compound: COc1ccc(OCCON)cc1
label.value: false
//
compound: COc1cc(C(=O)NCc2nn(CCN3CCC(N4CCCC4)CC3)cc2-c2ccc(Cl)c(Cl)c2)cc(OC)c1OC
label.value: false
//
compound: CCN(CC)CCCSc1ccc(-c2ccc(SCCCN(CC)CC)cc2)cc1
label.value: false
//
compound: CC(=O)NCCNc1cc(N2CCc3ncnc(Nc4ccc(OCc5c(F)cccc5F)c(Cl)c4)c3C2)ncn1
label.value: true
//
compound: CC1CCCCN1CCCNc1ncc2c(-c3ccc(NC(=O)Nc4cc(C(F)(F)F)ccc4F)c(F)c3)nn(C)c2n1 (stereo unspecified)
label.value: false
//
compound: COc1ccc2ncc(F)c(CCN3C[C@@H]4CCC[C@]4(CNCc4ccc5c(n4)NC(=O)CS5)C3)c2n1
label.value: false
//
compound: Cc1cc(N[C@@H](Cc2ccccc2)C(=O)NCCc2ccccc2)nc(NCCc2ccccc2)n1
label.value: false
//
compound: CN(C)CCOc1cc(NC(=O)Nc2cccc([N+](=O)[O-])c2)ccc1I
label.value: false
//
compound: CC(=O)c1ccccc1C(=O)N1CCOc2ccc(C(O)C(c3ccccc3)c3ccccc3)cc2C1 (stereo unspecified)
label.value: false
//
compound: Cc1cc(N[C@@H](CC(C)C)C(=O)Nc2ccccc2)nc(NCCc2ccccc2)n1
label.value: false
//
compound: CCNc1cc(C(=O)N[C@@H](Cc2ccccc2)[C@H](O)CNC(C)CC(C)C)c(F)c(N2CCCCS2(=O)=O)c1 (stereo partly specified)
label.value: false
//
compound: FC(F)(F)COc1ccc(CCNCCCCNCCc2ccc(OCC(F)(F)F)c3ccccc23)c2ccccc12
label.value: true
//
compound: CC(C)Nc1nc(NC2CCCCC2)nc(N2CCCCCCC2)n1
label.value: false
//
compound: Oc1ccc(CCNCCCCCCNCCc2ccc(-c3ccccc3)cc2)cc1O
label.value: true
//
compound: Cc1nnsc1C(=O)Nc1cccc(-c2ccc(-c3nc4ccc(F)cc4[nH]3)s2)c1
label.value: true
//
compound: O=C(Nc1ccc(-c2nc3ccccc3[nH]2)cc1)c1ccc(-c2cccc([N+](=O)[O-])c2)o1
label.value: false
//
compound: Cc1cc(NC(=O)Nc2ccc3nccc(N4CCN(C)CC4)c3c2)ccc1Br
label.value: false

====

test.name: human hepatoma cell viability loss – ATP luminescence, cytotoxicity control for P. falciparum antimalarial project, primary screen (AID 2303);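 further: 0% = DMSO wells and 100% = digitonin-killed cells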
assay.conditions: HepG2 viability, 24-48 h, at 10 µM, stronger effect = higher value
metric: inhibition (%)

compound: COc1ccc2nc3cc(Cl)ccc3c(NCCO)c2c1
metric: inhibition
endpoint.value: 12
//
compound: CCNc1cc(C(=O)N[C@@H](Cc2ccccc2)[C@H](O)CNC2CCCC2)cc(N2CCCC2=O)c1
metric: inhibition
endpoint.value: 8
//
compound: NCc1ccc(CNCc2cccc(-c3ccc(-c4nc5ccccc5[nH]4)cc3)c2)cc1
metric: inhibition
endpoint.value: 10
//
compound: CCOC(=O)c1[nH]c(-c2ccc(Cl)cc2)nc1NC(=S)NCCCN1CCOCC1
metric: inhibition
endpoint.value: 22
//
compound: Cc1cc(N[C@@H](Cc2ccccc2)C(=O)NC2CCCC2)nc(NCC2CCCCC2)n1
metric: inhibition
endpoint.value: 18
//
compound: CC(C)Cn1c(Sc2ccc(C#N)c([N+](=O)[O-])c2)nnc1-c1ccccc1Cl
metric: inhibition
endpoint.value: 18
//
compound: COc1ccc2ncc(F)c([C@H](O)CN3CCC(NCc4ccc5c(c4)OCCO5)CC3)c2c1
metric: inhibition
endpoint.value: 1
//
compound: O=C(Cc1ccccc1)NC1(c2ccccc2)CCN(CCc2c[nH]c3ccc(F)cc23)CC1
metric: inhibition
endpoint.value: 29
//
compound: COc1ccc(NC(=O)[C@H](Cc2ccccc2)Nc2cc(C)nc(NCCc3ccccn3)n2)cc1
metric: inhibition
endpoint.value: -7
//
compound: O=C(/C=C/c1ccc(Cl)c(Cl)c1)N1CCC(CCN2CCC(c3nc4ccc(O)cc4[nH]3)CC2)CC1
metric: inhibition
endpoint.value: 42
//
compound: CCNc1cc(C(=O)N[C@@H](Cc2ccccc2Cl)[C@H](O)CNC2CCCCC2)cc(N2CCCCS2(=O)=O)c1
metric: inhibition
endpoint.value: 6
//
compound: Cc1ccccc1Nc1nc(Nc2ccccc2)c2ccccc2n1
metric: inhibition
endpoint.value: 19
//
compound: Cc1c(-c2ccccc2)ccc2[nH]cc(CC#N)c12
metric: inhibition
endpoint.value: 2
//
compound: FC(F)(F)c1ccc2c(NCCNc3ccnc4cc(C(F)(F)F)ccc34)ccnc2c1
metric: inhibition
endpoint.value: 21
//
compound: CC(O)C1CCCCN1C(=O)c1cccc(-c2ccc(-c3nc4ccc(F)cc4[nH]3)cc2)c1 (stereo not drawn)
metric: inhibition
endpoint.value: 46
//
compound: O=C(CCOc1ccccc1)NCC1CCCO1 (stereo not drawn)
metric: inhibition
endpoint.value: -10
//
compound: COc1ccc(CC2(CO)CCN(Cc3ccc(O)c(Cl)c3)CC2)cc1
metric: inhibition
endpoint.value: -6
//
compound: CCC(C)c1ccc(NC(=O)c2ccc(S(=O)(=O)Nc3ccc(OC)c(N4CCN(CC5CC5)CC4)c3)cc2)cc1 (stereo not drawn)
metric: inhibition
endpoint.value: 24

From: PubChem BioAssay
